Assignment: determine reported LD50 at 72 h for the given molecules.
Experiment: Acute toxicity (oral, mice, 72 hours); safety margin
Assay type: in vivo
Details: mouse, in vivo; oral, mice; died 72 hours after dosing; read-out: Side effect: Acute toxicity LD50 (E)
One number for each entry, in mg/kg.

>>> print(df.to_string())
                                   molecule  property_measured  observed_measurement
0            Cc1ccccc1-n1c(CF)nc2ccccc2c1=O       LD50 at 72 h                   710
1  Cc1ccccc1-n1c(CF)nc2ccc(N)cc2c1=O [quinazolinone derivative [I]]       LD50 at 72 h                   528
2  Cc1ccccc1OCC(O)CO (stereo not shown) [Mephenesin, 3-(o-tolyloxy)-1,2-propanediol]       LD50 at 72 h                  2020

Now turn to the next molecule.
[in] For CN1C(=O)CCS(=O)(=O)C1c1ccc(Cl)cc1 (stereo not shown) [Chlormezanone] , what is its reported LD50 at 72 h?
[out] 1340
